tested on: HEK293T; assay: plasma membrane surface immunostaining intensity (anti-HA, deep receptor scanning) (arbitrary fluorescence units); higher = higher plasma membrane expression; details: GPCR class: A
observable: plasma membrane surface immunostaining intensity

residue_codes="MTAAIRRQRELSILPKVTLEAMNTTVMQGFNRSERCPRDTRIVQLVFPALYTVVFLTGILLNTLALWVFVHIPSSSTFIIYLKNTLVADLIMTLMLPFKILSDSHLAPWQLRAFVCRFSSVIFYETMYVGIVLLGLIAFDRFLKIIRPLRNIFLKKPVFAKTVSIFIWFFLFFISLPNTILSNKEATPSSVKKCASLKGPLGLKWHQMVNNICQFIFWTVFILMLVFYVVIAKKVYDSYRKSKSKDRKNNKKLEGKVFVVVAVFFVCFAPFHFARVPYTHSQTNNKTDCRLQNQLFIAKETTLFLAATNICMDPLIYIFLCKKFTEKLPCMQGRKTTASSQENHSSQTDNITLG [P2RY13]" value_measured=239
residue_codes="MLGIMAWNATCKNWLAAEAALEKYYLSIFYGIEFVVGVLGNTIVVYGYIFSLKNWNSSNIYLFNLSVSDLAFLCTLPMLIRSYANGNWIYGDVLCISNRYVLHANLYTSILFLTFISIDRYLIIKYPFREHLLQKKEFAILISLAIWVLVTLELLPILPLINPVITDNGTTCNDFASSGDPNYNLIYSMCLTLLGFLIPLFVMCFFYYKIALFLKQRNRQVATALPLEKPLNLVIMAVVIFSVLFTPYHVMRNVRIASRLGSWKQYQCTQVVINSFYIVTRPLAFLNSVINPVFYFLLGDHFRDMLMNQLRHNFKSLTSFSRWAHELLLSFREK [SUCNR1]" value_measured=528
residue_codes="MESSFSFGVILAVLASLIIATNTLVAVAVLLLIHKNDGVSLCFTLNLAVADTLIGVAISGLLTDQLSSPSRPTQKTLCSLRMAFVTSSAAASVLTVMLITFDRYLAIKQPFRYLKIMSGFVAGACIAGLWLVSYLIGFLPLGIPMFQQTAYKGQCSFFAVFHPHFVLTLSCVGFFPAMLLFVFFYCDMLKIASMHSQQIRKMEHAGAMAGGYRSPRTPSDFKALRTVSVLIGSFALSWTPFLITGIVQVACQECHLYLVLERYLWLLGVGNSLLNPLIYAYWQKEVRLQLYHMALGVKKVLTSFLLFLSARNCGPERPRESSCHIVTISSSEFDG [GPR119]" value_measured=702
residue_codes="MPSKSLSNLSVTTGANESGSVPEGWERDFLPASDGTTTELVIRCVIPSLYLLIITVGLLGNIMLVKIFITNSAMRSVPNIFISNLAAGDLLLLLTCVPVDASRYFFDEWMFGKVGCKLIPVIQLTSVGVSVFTLTALSADRYRAIVNPMDMQTSGALLRTCVKAMGIWVVSVLLAVPEAVFSEVARISSLDNSSFTACIPYPQTDELHPKIHSVLIFLVYFLIPLAIISIYYYHIAKTLIKSAHNLPGEYNEHTKKQMETRKRLAKIVLVFVGCFIFCWFPNHILYMYRSFNYNEIDPSLGHMIVTLVARVLSFGNSCVNPFALYLLSESFRRHFNSQLCCGRKSYQERGTSYLLSSSAVRMTSLKSNAKNMVTNSVLLNGHSMKQEMAL [NMBR]" value_measured=2430
